- EXPERIMENTAL_PROTOCOL: binders from COS7 lysate, DM2A8 probe, primary screen, torsin A project, cell lysate, small-molecule microarray, fluorescence 635/667 (AID 1065)
- TEST_CONTEXT: higher = more signal, COS7 lysate expressing mutant human TOR1A
READOUT_NAME: composite z-score

Example entries and their recorded answers appear below.
# INPUT_SMILES, READOUT_NAME, ENDPOINT_RESULT
records = [
    ("CC(C)[C@@H](OCc1ccccc1)[C@H](C)C=NOC[C@@H](O)COCc1ccco1", "composite z-score", 0.84),
    ("O=C(C=Cc1ccc2c(c1)OCO2)c1ccc(F)cc1", "composite z-score", 0.668),
    ("CC(C)CON=C1[C@H]2CCn3c(=O)n(Cc4cc5c(cc4Cl)OCO5)c(=O)n3[C@H]2[C@H](O)[C@@H]2O[C@H]12", "composite z-score", 0.493),
]

Continue with the compound presented below.
Supply measured composite z-score of CC(C)=CCCC(C)=CCON=C1C[C@@H](O)[C@@H](O)[C@@H]2[C@@H]3C(=O)N(C[C@@H]4CCCO4)C(=O)[C@@H]3CC[C@H]12 in your reply.
1.78

----------
- EXPERIMENTAL_PROTOCOL: A549 cell viability effects, profiling panel, calcein-AM fluorescence, 48 h, basal (AID 1162); also: test concentration not given here
- TEST_CONTEXT: higher = more signal
Consider the following molecules; for each one, report its z-score.

# MOLECULE, READOUT_NAME, ENDPOINT_RESULT
rows = [
    ("CO[C@@H]1COC(=O)CC=C[C@H](C)[C@H](OC)COC(=O)[C@H](C)NC(=O)CC=C[C@H]1C", "z-score", 0.296),
    ("CCC1=NOC(CCC2CC(OC(=O)NCc3cccc4c3OCO4)CC3(CCCC(COC(=O)NCCc4ccccc4OC)O3)O2)C1 (centres undefined)", "z-score", -1.02),
    ("CON=C[C@@H](C)[C@H](OCc1ccccc1)C(C)C", "z-score", -1.1),
]

Continue with the molecule presented below.
Supply measured z-score of CCOC(=O)[C@H](CC(C)C)NC(=O)CCC1CC(OC(=O)NCc2cccc3ccccc23)CC2(CCCC(COC(=O)NCCC(C)C)O2)O1 (some centres undefined) in your reply.
2.25

----------
- EXPERIMENTAL_PROTOCOL: binders from COS7 lysate, DM2A8 probe, primary screen, torsin A project, cell lysate, small-molecule microarray, fluorescence 635/667 (AID 1065)
- TEST_CONTEXT: higher = more signal, COS7 lysate expressing mutant human TOR1A
Consider the following compounds; for each one, report its composite z-score.
Numbers only.

# COMPOUND, ENDPOINT_RESULT
measured = [
    ("CCCCC#C[C@@H]1C=C[C@H](Oc2cc(OC)c(OC)c(OC)c2)[C@@H](COC(=O)OCC)O1", -0.0561),
    ("COC(=O)[C@H](C)NC(=O)CCC1CC(OC(=O)NCc2ccc3c(c2)OCO3)CC2(CCCC(COC(=O)NCC3CCCCC3)O2)O1 (some centres undefined)", 0.0369),
    ("O=C1[C@H]2[C@H]3[C@H](O)[C@H](O)CC(=NOCc4ccccc4)[C@H]3CC[C@H]2C(=O)N1Cc1ccc2c(c1)OCO2", 0.239),
]

Continue with the compound presented below.
Supply measured composite z-score of CCCNC(=O)OC[C@H]1O[C@H](CCON=C(C)CCN2CCCc3nc(C)c(C)cc32)C=C[C@@H]1Oc1ccc(OC)cc1 in your reply.
-0.0773

Each recorded value in this set is attributed to PubChem BioAssay.
